target: T1, human SIRP-α v1 D1 domain (human, UniProt P78324 31-149); experiment: SPR, Langmuir fit
T1 construct: also called human v1
T1 sequence (P78324 31-149 limits assumed): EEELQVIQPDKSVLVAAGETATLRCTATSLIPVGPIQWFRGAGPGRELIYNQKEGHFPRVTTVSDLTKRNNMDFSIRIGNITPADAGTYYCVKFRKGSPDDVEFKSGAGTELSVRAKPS
Here the recorded koff is given for each entry.

binder | koff [s⁻¹]
S164 (scFv, V domains shown) VH: DVQLVESGGGLVRPGESLRLSCAASGFTFTNYAVTWVRQAPGEGLEWVSLISVTGTTYYADSVKGRFTISRDNSKSTLYLQMNGLRAEDTAVYYCAKVTWKNVFDYWGLGTLVTVSS VL: EIVLTQSPGTLSVSPGERATFSCRASQTVGSKLAWYQQKPGQAPRLLIYDANTRATGIPARFSGSRSGTEFTLTISSLQSEDFAVYYCQQHTDWPPYTFGGGTKVEIK | 0.000595
S174 (scFv, V domains shown) VH: DVQLVESGGGVVRPGESLRLSCAASGFTFSDHDMSWVRQGPGEGLEWVAGISLRGGVTWYADSVKGRFTISRDNSKNTLYLRLFSLRTEDTAIYYCARESWNTFFDYWGLGTLVTVSS VL: EIVLTQSPGTLSLSPGETATLSCRASQNVRSNLAWYQQKPGQAPRLLIYDASSRATGIPDRFSGSGSGTDFTLTISSLQSEDFAVYYCQQYGNGPPLTFGGGTKVEIK | 0.00143
S189 (scFv, V domains shown) VH: DVQLVESGGGVVRPGESLRLSCAASGFTFSSSDMNWVRQAPGEGLEWVSLISGSGEITYYADSVKGRFTISRDNSKNTLYLQMNSLRAEDTAIYYCAKENNMYRFFDYWGLGTLVTVSS VL: ETVLTQSPGTLSLSPGERATLSCRASQSVYTYLAWYQQKPGQPPRLLIHAARNRAAGIPDRFSGSGSGTEFTLTISSLQSEDFAVYYCQQYYDRPPLTFGGGTKVEIK | 0.00106
S66 (scFv, V domains shown, also called clone 66; scFv-Fc form of AB66) VH: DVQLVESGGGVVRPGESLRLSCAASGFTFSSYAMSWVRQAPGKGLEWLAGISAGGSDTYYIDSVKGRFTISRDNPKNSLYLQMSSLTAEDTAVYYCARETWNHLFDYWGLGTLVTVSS VL: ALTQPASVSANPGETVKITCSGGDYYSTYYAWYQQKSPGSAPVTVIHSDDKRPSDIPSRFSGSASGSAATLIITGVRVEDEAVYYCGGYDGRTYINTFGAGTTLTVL | 0.000118
S163 (scFv, V domains shown) VH: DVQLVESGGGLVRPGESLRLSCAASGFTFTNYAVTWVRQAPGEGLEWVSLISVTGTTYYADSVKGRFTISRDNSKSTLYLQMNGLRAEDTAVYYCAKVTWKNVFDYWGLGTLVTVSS VL: EIVLTQSPGTLSVSPGERATFSCRASQTVGSKLAWYQQKPGQAPRLLIYDANTRATGIPARFSGSGSGTEFTLTISSLQSEDFAVYYCQQHTDWPPYTFGGGTKVEIK | 0.000535
